B1: E3 ubiquitin-protein ligase NEDD4-like, residues 539 to 589; numbered along this chain, Q96PU5 (parent)
chain: KTSLNPNDLGPLPPGWEERIHLDGRTFYIDHNSKITQWEDPRLQNPAITGP

Variants of: B1
Experiment: abundance fitness (aPCA) (normalised: wild type 0, dead -1); higher = more abundant; growth selection in yeast, the domain comes from the species named
Settings: Homo sapiens
Hi all, reminder that labels come from abundance fitness, split as LOW: < -0.4; MEDIUM: ≥ -0.4 and < -0.1; HIGH: ≥ -0.1

Lab note: sort "D23E" into the matching abundance fitness band.
LOW

Lab note: sort "Y28R" into the matching abundance fitness band.
LOW

Lab note: sort "D23R" into the matching abundance fitness band.
LOW

Lab note: sort "W38Q" into the matching abundance fitness band.
HIGH

Lab note: sort "T26Y" into the matching abundance fitness band.
MEDIUM

Lab note: sort "P14S" into the matching abundance fitness band.
HIGH

Lab note: sort "L43Q" into the matching abundance fitness band.
MEDIUM

Lab note: sort "L43N" into the matching abundance fitness band.
MEDIUM

Lab note: sort "G10L" into the matching abundance fitness band.
LOW

Lab note: sort "L22V" into the matching abundance fitness band.
HIGH
